assay_overview: supercomplex reporter luminescence per Hoechst cell count – Hoechst nuclei count (AID 1645838);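 note: control cybrid cells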
condition_notes: Cells, luminescence/Hoechst cell count ratio, measured here: cell number, Hoechst nuclei count, library stock concentration (final well concentration not given) 1.67 mM
Out of some 2,000 compounds screened, about 100 (5%) were called active. The list comes from a sample in which actives are over-represented; it also holds close analogues and randomly drawn compounds. Positions of bridges follow the written chain, without caps; N, C: chain ends. Non-standard residues stand in square brackets, D forms with d. Residues, ends and D or L forms follow the SMILES beside them. hArg = N=C(N)NCCCC[CH](N)C(=O)O; Mpa = O=C(O)CCS
quantity_kind: cell count

Some solved entries appear below for comparison.
compound	cell count
O=C(O)C1CCC(c2cc3cccnc3c(-c3cccc(F)c3)n2)CC1 (stereo unspecified)	5980
CC(C)NCC(O)c1ccc(O)c(O)c1 (stereo unspecified)	6690
NC(=O)C1CSSCCC(=O)NC(CCCCN=C(N)N)C(=O)NCC(=O)NC(CC(=O)O)C(=O)NC(Cc2c[nH]c3ccccc23)C(=O)N2CCCC2C(=O)N1 (stereo unspecified) ([Mpa][hArg]GDWPC-NH2; disulfide 1-7; configuration not given here)	6620
NC(=O)c1cnc(NCCc2ccc(O)c(Cl)c2)nc1NCc1ccccc1	1590
CCN(CC)c1ccc(C=NNC(=O)c2ccc(O)cc2)cc1	6690

Record cell count for all entries; do not skip any.
1. CCCCCc1ccc(C=CC(=O)Nc2ccccc2C(=O)O)cc1
2. O=C(Nc1cccc(Nc2ncc(Br)c(NCCc3cnc[nH]3)n2)c1)N1CCCC1
3. COc1cc(Nc2c(C#N)cnc3cc(OCCCN4CCN(C)CC4)c(OC)cc23)c(Cl)cc1Cl
4. c1cc2c(cc1C1CCCCC1)c1c3n2CCNC3CCC1 (stereo unspecified)
5. O=C(Cc1cccc(OC(F)(F)F)c1)Nc1ccc(CCCCc2nnc(NC(=O)Cc3ccccn3)s2)nn1
6. CN(C)CCC1(c2ccc(Cl)cc2)Cc2ccccc2C(=O)O1 (stereo unspecified)
7. CCCCCCCCCCC(=O)O
8. COc1ccccc1Oc1c(NS(=O)(=O)c2ccc(C)cn2)nc(-c2ccncc2)nc1OC

Reply:
6860
2060
3280
6160
4190
6480
6810
7600

Record cell count for all entries; do not skip any.
1. Cc1ccc(C(=O)Nc2ccc(Oc3cc4cnn(C)c4cc3-c3cn[nH]c3)c(F)c2)c(=O)n1-c1ccc(F)cc1
2. Cc1ccc(NC(=O)c2cccc(C(C)(C)C#N)c2)cc1Nc1ccc2ncn(C)c(=O)c2c1
3. CN1CCc2c(c3ccccc3n2Cc2ccc(C(=O)NO)cc2)C1

Reply:
[7070, 4330, 4790]
